Exercise: state measured IC50 for each of the compounds provided.
tested on: DU-145; assay: Antiproliferative activity against DU145 cell line by MTS assay; assay type: functional, cell-based; conditions: Homo sapiens
Answers are plain numbers, in µM.

// worked examples, IC50 included
{"Compound": "COc1cc(/C=C2\\CCCn3c2nc2ccc(C)cc2c3=O)cc(OC)c1O", "IC50 [µM]": 14.7}
{"Compound": "COc1cc(/C=C2\\CCCn3c2nc2c(C)cccc2c3=O)cc(OC)c1O", "IC50 [µM]": 2.63}
{"Compound": "COc1cc(/C=C2\\CCCn3c2nc2c(O)cccc2c3=O)cc(OC)c1O", "IC50 [µM]": 3.11}

State recorded IC50 for all listed compounds.
1. COc1cc(/C=C2\CCCn3c2nc2ccc(Cl)cc2c3=O)cc(OC)c1O
2. COc1cc(/C=C2\CCCn3c2nc2ccc(Br)cc2c3=O)cc(OC)c1O
3. COc1cc(/C=C2\CCCn3c2nc2ccc(I)cc2c3=O)cc(OC)c1O
4. COc1cc(/C=C2\CCCn3c2nc2c(OC)cccc2c3=O)cc(OC)c1O
5. COc1ccc2nc3n(c(=O)c2c1)CCC/C3=C\c1cc(OC)c(O)c(OC)c1
6. COc1cc(/C=C2\CCCn3c2nc2ccc(F)cc2c3=O)cc(OC)c1O

Reply:
[18.3, 8.47, 10.3, 0.51, 10.3, 14.2]

Task item: Specify measured IC50 for COc1cc(/C=C2\CCCn3c2nc2c(C)cc(C)cc2c3=O)cc(OC)c1O .
Reply: 0.79

====

molecular target: Tubulin (Homo sapiens) (UniProt P68371+Q9H4B7+P0DPH7+P68366+Q13509+Q71U36+P04350+Q3ZCM7+P07437+P68363+Q9BQE3+Q6PEY2+Q13885+Q9BVA1+Q9BUF5); test: Inhibitory activity against tubulin polymerization; assay type: protein-complex assay
Calls of active or inactive are those of the source. No cut-off for these calls is given here.
Measure: Activity

{"Compound": "COc1ccc2nc3n(c(=O)c2c1)CCC/C3=C\\c1cc(OC)c(O)c(OC)c1", "Activity": "Active"}
{"Compound": "COc1cc(/C=C2\\CCCn3c2nc2c(O)cccc2c3=O)cc(OC)c1O", "Activity": "Active"}
{"Compound": "COc1cc(/C=C2\\CCCn3c2nc2ccc(Br)cc2c3=O)cc(OC)c1O", "Activity": "Active"}
{"Compound": "COc1cc(/C=C2\\CCCn3c2nc2c(OC)cccc2c3=O)cc(OC)c1O", "Activity": "Active"}
{"Compound": "COc1cc(/C=C2\\CCCn3c2nc2ccc(F)cc2c3=O)cc(OC)c1O", "Activity": "Active"}

State recorded Activity for all listed molecules.
1. COc1cc(/C=C2\CCCn3c2nc2ccc(I)cc2c3=O)cc(OC)c1O
2. COc1cc(/C=C2\CCCn3c2nc2ccc(Cl)cc2c3=O)cc(OC)c1O

Reply:
Active
Active

====

biological target: Tubulin; test: Effect on induction of mitotic arrest by phosphohistone H3 (pH3) assay
Measure: pEC50
Numbers only, as −log10 of the molar value.

// worked examples, pEC50 included
{"Compound": "COc1cc(/C=C2\\CCCn3c2nc2c(OC)cccc2c3=O)cc(OC)c1O", "Number": 6.27}
{"Compound": "COc1cc(/C=C2\\CCCn3c2nc2c(C)cccc2c3=O)cc(OC)c1O", "Number": 5.79}
{"Compound": "COc1cc(/C=C2\\CCCn3c2nc2c(C)cc(C)cc2c3=O)cc(OC)c1O", "Number": 6.59}
{"Compound": "CC(=O)O[C@H]1C(=O)[C@@]2(C)[C@H]([C@H](OC(=O)c3ccccc3)[C@]3(O)C[C@H](OC(=O)[C@H](O)[C@@H](NC(=O)c4ccccc4)c4ccccc4)C(C)=C1C3(C)C)[C@]1(OC(C)=O)CO[C@@H]1C[C@@H]2O", "Number": 7.51}

State recorded pEC50 for all listed compounds.
1. COc1cc(/C=C2\CCCn3c2nc2ccc(Br)cc2c3=O)cc(OC)c1O
2. COc1cc(/C=C2\CCCn3c2nc2c(O)cccc2c3=O)cc(OC)c1O
3. COc1cc(/C=C2\CCCn3c2nc2ccc(I)cc2c3=O)cc(OC)c1O

Reply:
1. 5.62
2. 5.94
3. 4.97

Data credit: ChEMBL document CHEMBL1149429
